# System Under Test: human MDM4 protein (amino acids 2-185) (Homo sapiens)
# Construct: human MDM4 protein (amino acids 2-185); made in house
# Sequence (O15151 2-185): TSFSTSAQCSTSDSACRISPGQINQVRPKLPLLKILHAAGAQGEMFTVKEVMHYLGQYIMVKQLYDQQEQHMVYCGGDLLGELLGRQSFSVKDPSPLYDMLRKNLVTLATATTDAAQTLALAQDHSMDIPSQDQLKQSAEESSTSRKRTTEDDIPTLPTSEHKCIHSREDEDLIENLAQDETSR
# Method Summary: p53-MDM4 TR-FRET assay (p53-MDM4 Assay 1)
# Type: binding
# Particulars: 2.5 nM MDM4-biotinylated, 10 nM Cy5-p53 peptide; read-out: IC50 (μM) of p53-Hdm4 inhibition (TR-FRET) Assay 1
Result Type: IC50 (µM)

Answered cases to consult:
• COc1cc2c(cc1OC(C)C)[C@H](c1ccc(Cl)cc1)N(c1ccc(C(C)(O)c3ccc(NC(C)=O)cc3)cn1)C(=O)C2 (stereo partly shown) [Example 25] = 19.5
• COCCOc1cc2c(cc1OC(C)C)[C@H](c1ccc(Cl)cc1)N(c1ccc(C(C)(O)C3CCOCC3)cc1)C(=O)C2 (stereo partly shown) [Example 145] = 3

(P) COc1ccc(C(O)c2ccc(N3C(=O)Cc4cc(OC)c(OC(C)C)cc4[C@@H]3c3ccc(Cl)cc3)cc2)cc1 (stereo partly shown) [Example 4]
(Q) COc1cc2c(cc1OC(C)C)[C@H](c1ccc(Cl)cc1)N(c1ccc(C(C)(O)C3CC4CCC(C3)N4C(C)C)cc1)C(=O)C2 (stereo partly shown) [Example 110]
Lower value for measured IC50? Options: P , Q Response format: the label of the selected entry. Q
(Q: 4.23 µM, P: 17.3 µM)

====

# System Under Test: human MDM4 protein (amino acids 2-185) (Homo sapiens, UniProt O15151)
# Construct: human MDM4 protein (amino acids 2-185); made in house
# Sequence (O15151 2-185): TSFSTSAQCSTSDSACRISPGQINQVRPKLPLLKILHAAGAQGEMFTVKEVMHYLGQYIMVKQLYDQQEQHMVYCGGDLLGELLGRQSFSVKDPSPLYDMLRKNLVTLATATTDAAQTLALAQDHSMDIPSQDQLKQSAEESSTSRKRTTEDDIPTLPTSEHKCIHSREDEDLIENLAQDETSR
# Method Summary: p53-MDM4 TR-FRET assay (p53-MDM4 Assay 1)
# Type: binding
# Particulars: 2.5 nM MDM4-biotinylated, 10 nM Cy5-p53 peptide; read-out: IC50 (μM) of p53-Hdm4 inhibition (TR-FRET) Assay 1
Result Type: IC50 (µM)

Answered cases to consult:
* COc1cc2c(cc1OC(C)C)[C@H](c1ccc(Cl)cc1)N(c1ccc([C@@](C)(O)C3CCN(C(C)=O)CC3)cc1)C(=O)C2 (single isomer, unassigned) | 1.62
* CCN1CC(C(C)(O)c2ccc(N3C(=O)Cc4cc(OC)c(OC(C)C)cc4[C@@H]3c3ccc(Cl)cc3)cc2)C1 (stereo partly shown) | 30.1
* COc1cc2c(cc1OC(C)C)[C@H](c1ccc(Cl)cc1)N(c1ccc(C(C)(O)C3CN(C4CCCCC4)C3)cc1)C(=O)C2 (stereo partly shown) | 24.6

(A) COc1cc2c(cc1OC(C)C)[C@H](c1ccc(Cl)cc1)N(c1ccc(C(C)(O)C3CCN(C(N)=O)CC3)cc1)C(=O)C2 (stereo partly shown)
(B) COc1cc2c(cc1OC(C)C)[C@H](c1ccc(Cl)cc1)N(c1ccc(C(C)(O)C3CN(C4CCOCC4)C3)cc1)C(=O)C2 (stereo partly shown)
Lower value for measured IC50? Options: A , B Response format: the label of the selected entry. A
(A: 4.95 µM, B: 34.7 µM)

Data provenance: patent US8859535B2
